# Test system: COLO 205
# test_protocol: NCI tumour cell line growth inhibition, 48 h
Active and inactive are the calls of the source. Rule as the data show it: active = GI50 up to about 1.1 µM and inactive = higher.
// reported GI50 per item

Report GI50 for `Cc1ccc(S(=O)(=O)N/N=C/C(=C/c2ccc(Cl)cc2)CC(/C=N/NS(=O)(=O)c2ccc(C)cc2)=C\c2ccc(Cl)cc2)cc1`
5 µM (inactive)

Give the reported GI50 for this compound. CCCCCC1C2C(=O)NC(=O)C1C(=O)NC2=O (centres undefined)
> 100 µM (inactive)

Output GI50 of CC(=O)Nc1ccc(C(=O)NN2C(=O)C(Cl)C2c2cc(Br)ccc2O)cc1 (centres undefined)
36.1 µM (inactive)

Next:
Supply GI50 value. Item: `N#Cc1c(NC(=O)C(F)(F)F)sc2c3c(=O)c4ccccc4c(=O)c=3oc3ccccc3c12`
14.7 µM (inactive)

For `NC(=S)N/N=C\c1ccc(OCc2cccc(COc3ccc(/C=N/NC(N)=S)cc3)n2)cc1` , write its GI50.
5.73 µM (inactive)

Note down GI50 recorded for Fc1cccc(F)c1C1SCc2nc3ccccc3n21 (centres undefined) [THIAZOLOBENZIMIDAZOLE]
> 100 µM (inactive)

Specify GI50 for `O=C1c2cccnc2C(=O)c2c1nc1ccccc1c2-c1ccc2c3c(nc4ccccc42)C(=O)c2cccnc2-c13` and stop.
2.08 µM (inactive)

Indicate its recorded GI50; the compound in question is N#Cc1nn(C2OC(COC(=O)c3ccccc3)C(OC(=O)c3ccccc3)C2OC(=O)c2ccccc2)c2nc[nH]c(=O)c12 (centres undefined)
27.4 µM (inactive)

Supply recorded GI50 for `OCCCNc1[nH]cnc2nncc1-2` here.
> 100 µM (inactive)

This collection of values is drawn from ChEMBL document CHEMBL1201862.
